- experimentalTarget: Inward rectifier potassium channel 2 (Mus musculus) (UniProt P35561)
- Sequence (P35561 whole entry, looked up): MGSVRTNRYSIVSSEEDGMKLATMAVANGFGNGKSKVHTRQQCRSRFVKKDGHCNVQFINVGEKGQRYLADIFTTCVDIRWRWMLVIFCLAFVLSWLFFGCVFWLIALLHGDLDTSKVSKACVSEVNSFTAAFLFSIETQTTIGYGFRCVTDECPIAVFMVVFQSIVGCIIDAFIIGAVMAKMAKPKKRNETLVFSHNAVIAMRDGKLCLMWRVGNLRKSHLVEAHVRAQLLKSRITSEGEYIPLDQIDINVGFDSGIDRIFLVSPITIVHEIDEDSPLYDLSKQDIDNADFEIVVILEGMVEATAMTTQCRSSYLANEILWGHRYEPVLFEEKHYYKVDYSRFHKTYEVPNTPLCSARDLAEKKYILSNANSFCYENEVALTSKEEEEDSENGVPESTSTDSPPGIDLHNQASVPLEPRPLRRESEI
- measurementProtocol: inhibitors of mouse Kir2.1 inward-rectifier potassium channel (AID 1672);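 note: channel flux triggered by added potassium and thallium sulfate stimulus; B-score of peak minus minimum fluorescence over baseline after thallium stimulus; more negative B-score means stronger Kir2.1 block with less thallium influx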
- protocolConditions: HEK293-Kir2.1, FluxOR thallium flux fluorescence; at 10 µM; stronger effect = lower value
Screen size: about 310,000 compounds; about 2,600 (0.84%) were called active. The list comes from a sample in which actives are over-represented; it also holds close analogues and randomly drawn compounds.
A collection of molecules and their measured B-score

| molecule | B-score |
| --- | --- |
| CCOc1cccc(=NC2CCCCC2)c2c(C)[nH]c(C)c12 | -6.51 |
| C/C(=N/O)c1ccc2ccc3ccccc3c2c1 | -0.33 |
| COC(=O)C1=C(c2cc3ccccc3o2)C[C@@H]2CC[C@H]1N2C(=O)NC1CCCCC1 | -0.65 |
| C=CC12CN(C)[C@@H]3C4CO[C@H](C[C@H]41)[C@]1(C(=O)Nc4ccccc41)[C@@H]32 (stereo partly specified) | -0.31 |
| Fc1ccc(N2CCN(Cc3ccc4c(c3)OCO4)CC2)cc1 | -6.26 |
| NCCc1c[nH]c2ccc(O)cc12 | -0.71 |

All values here come from PubChem BioAssay AID1672.
